Assay: Compound solubility in PBS (pH 7.4), LC-MS/MS
Settings: pH 7.4, aqueous buffer, kinetic from dmso stock, Solubility (μM) Mean, Table 6-B; PBS (pH 7.4), test concentration 100 μM (1% of DMSO), shaken (1000 rpm) 1 h at room temperature, n = 2
Procedure: • Test concentration: 100 μM (1% of DMSO) • Test systems: PBS (pH 7.4) • Incubation condition: shaken (1000 rpm) for 1 h at room temperature • Sample size: Duplicates (n=2) • Bioanalytical method: LC-MS/MS
readout_kind: solubility at 1 h (µM)
API: value field is a number in µM; no unit string.

Output solubility at 1 h of COC(=O)[C@]1(C)CC[C@]2(C)CC[C@]3(C)C4=CC=C5C(=CC(=O)C(O)=C5C)[C@]4(C)CC[C@@]3(C)[C@@H]2C1 [ERX1074]
4.19

Output solubility at 1 h of CC(C)NCC(O)COc1cccc2ccccc12 (centres unmarked) [Propranolol]
97.5

====

System: C57BL/6 Diet Induced Obese (DIO) mice
Test: Oral (P.O.) administration study in DIO mice: in vivo activity, body weights
Set-up: species or system mouse
Conditions: DIO mice, male, 2 mg/kg, phase DSNG, Day 10
readout_kind: Body weight, Mean (g)
API: value field is a number in g; no unit string.

Enter Body weight, Mean (test system C57BL/6 Diet Induced Obese (DIO) mice) for CC(=O)N[C@]1(C)CC[C@]2(C)CC[C@]3(C)C4=CC=C5C(=CC(=O)C(O)=C5C)[C@]4(C)CC[C@@]3(C)[C@@H]2C1 [ERX1168]
29.2

Enter Body weight, Mean (test system C57BL/6 Diet Induced Obese (DIO) mice) for CC1=C(O)C(=O)C=C2C1=CC=C1[C@@]2(C)CC[C@@]2(C)[C@@H]3C[C@](C)(CN(C)C)CC[C@]3(C)CC[C@]12C [ERX1060]
33.5

Enter Body weight, Mean (test system C57BL/6 Diet Induced Obese (DIO) mice) for CC1=C(O)C(=O)C=C2C1=CC=C1[C@@]2(C)CC[C@@]2(C)[C@@H]3C[C@](C)(N)CC[C@]3(C)CC[C@]12C [ERX1077]
33.8

====

Experiment: Compound solubility in PBS (pH 7.4), LC-MS/MS
Settings: pH 7.4, aqueous buffer, kinetic from dmso stock, Solubility (μM) Mean, Table 6-C; PBS (pH 7.4), test concentration 100 μM (1% of DMSO), shaken (1000 rpm) 1 h at room temperature, n = 2
readout_kind: solubility at 1 h

Output solubility at 1 h of CC(C)NCC(O)COc1cccc2ccccc12 (stereo not shown) [Propranolol]
> 100 µM

====

Provide the reported change in vivo at 2 mg/kg of each item.
Test system: C57BL/6 Diet Induced Obese (DIO) mice
Assay: Oral (P.O.) administration study in DIO mice: in vivo activity, body weights
Design: species or system mouse
Settings: Mus musculus, po, 192 h; DIO mice, male, 2 mg/kg, phase DSNG, Day 8; difference of group mean from vehicle group 1; read-out: Body weight, %-Diff
API: value field is a number in %; no unit string.

Output change in vivo at 2 mg/kg of CC(=O)N[C@]1(C)CC[C@]2(C)CC[C@]3(C)C4=CC=C5C(=CC(=O)C(O)=C5C)[C@]4(C)CC[C@@]3(C)[C@@H]2C1 [ERX1168]
-14

Output change in vivo at 2 mg/kg of CC1=C(O)C(=O)C=C2C1=CC=C1[C@@]2(C)CC[C@@]2(C)[C@@H]3C[C@](C)(N)CC[C@]3(C)CC[C@]12C [ERX1077]
0

Output change in vivo at 2 mg/kg of CCOC1=C(C)C2=CC=C3[C@@](C)(CC[C@@]4(C)[C@@H]5C[C@](C)(C(N)=O)CC[C@]5(C)CC[C@]34C)C2=CC1=O [ERX1107]
-4

Output change in vivo at 2 mg/kg of CC1=C(O)C(=O)C=C2C1=CC=C1[C@@]2(C)CC[C@@]2(C)[C@@H]3C[C@](C)(N(C)C)CC[C@]3(C)CC[C@]12C [ERX1177]
-2

Output change in vivo at 2 mg/kg of CC1=C(O)C(=O)C=C2C1=CC=C1[C@@]2(C)CC[C@@]2(C)[C@@H]3C[C@](C)(CN(C)C)CC[C@]3(C)CC[C@]12C [ERX1060]
-1

Output change in vivo at 2 mg/kg of CC(=O)N(C)C[C@]1(C)CC[C@]2(C)CC[C@]3(C)C4=CC=C5C(=CC(=O)C(O)=C5C)[C@]4(C)CC[C@@]3(C)[C@@H]2C1 [ERX1149]
-1
